Entry source: patent US10336697B2

- target_under_test: Bet BRD4 full length bromo-domain protein (Homo sapiens, UniProt O60885)
- protocol_details: Bet bromodomain TR-FRET assay (displacement of acetyl histone peptide)
- Format: binding
- measurement_context: Bet BRD4 full length bromodomain protein, 300 nM acetyl histone peptide substrate, read-out: IC50
pIC50: −log10 of the molar value.
test_readout: pIC50

Would you please look over these solved cases?
{"columns": ["molecule", "target_under_test", "test_readout", "measured"],
 "data": [
  ["COc1ccccc1S(=O)(=O)Nc1cc(OC2CCN(C)CC2)c2c(c1Cl)C1(CCC1)C(=O)N2", "Bet BRD4 full length bromo-domain protein (Homo sapiens, UniProt O60885)", "pIC50", "6.00 to 6.22"],
  ["CCN1CCC(Oc2cc(NS(=O)(=O)c3ccccc3OC)cc3c2NC(=O)C32CCC2)CC1", "Bet BRD4 full length bromo-domain protein (Homo sapiens, UniProt O60885)", "pIC50", "> 6.22"],
  ["COc1ccccc1S(=O)(=O)Nc1cc(OC(=O)N2CCOCC2)c2c(c1)C1(CCC1)C(=O)N2", "Bet BRD4 full length bromo-domain protein (Homo sapiens, UniProt O60885)", "pIC50", "> 6.22"]
]}

For the next question, use this molecule.
Any idea what its pIC50 is? The molecule is CN1CCCC(NC(=O)c2cc(NS(=O)(=O)c3ccc(F)cc3F)cc3c2NC(=O)C32CCC2)C1 (stereo not shown) > 6.22
